- target_or_test_system: Nuclear receptor subfamily 1 group I member 2 (Homo sapiens)
- assay_comment: ATG_PXR_TRANS: Attagene TRANS-FACTORIAL HepG2 Assay for human Pregnane X Receptor (PXR) (AID 2283008)
Results filed as inconclusive are left out. Active and inactive are the calls of the source. The calls were made as follows: active = hit-call score of the fitted dose curve at least 0.9, where 1 is the maximum; inconclusive = response in the unintended direction; inactive = score below 0.9.
Please reply with one of these outcomes: active, inactive

The examples below pair each entry with its known result.
[
  {
    "compound": "Cc1cc(C(F)(C(F)(F)F)C(F)(F)F)ccc1NC(=O)c1cccc(I)c1C(=O)NC(C)(C)CS(C)(=O)=O",
    "cat": "active"
  },
  {
    "compound": "Cl[C@H]1OCCO[C@@H]1Cl",
    "cat": "inactive"
  },
  {
    "compound": "CCCSP(=S)(OCC)Oc1ccc(Cl)cc1Cl (centres undefined)",
    "cat": "active"
  },
  {
    "compound": "Clc1cc(C(Cl)(Cl)Cl)cnc1Cl",
    "cat": "inactive"
  },
  {
    "compound": "Nc1ccc(-c2ccccc2)cc1",
    "cat": "inactive"
  }
]

Inquiry: What was the test verdict on `O=C(CBr)c1ccc(O)cc1` ?
Reply text: inactive

Inquiry: What was the test verdict on `Nc1c(Oc2ccccc2)cc(O)c2c1C(=O)c1ccccc1C2=O` ?
Reply text: active

Inquiry: What was the test verdict on `CCOc1cc(C=O)ccc1O` ?
Reply text: inactive

Inquiry: What was the test verdict on CC(C)(C1CCC(O)CC1)C1CCC(O)CC1 (centres undefined) ?
Reply text: inactive

Inquiry: What was the test verdict on `Fc1cccc(Cl)c1CCl` ?
Reply text: inactive

Inquiry: What was the test verdict on `COc1ccc(N)cc1` ?
Reply text: inactive

Inquiry: What was the test verdict on `CN(C1CCCCC1)C1CCCCC1` ?
Reply text: inactive

Inquiry: What was the test verdict on `O=C(O)CC(O)(CC(=O)O)C(=O)O` ?
Reply text: inactive

Inquiry: What was the test verdict on CCC(C)(C#N)N=NC(C)(C#N)CC (centres undefined) ?
Reply text: inactive

###

- assay_comment: TOX21_p53_BLA_p4_viability: Viability Assessment in the Tox21 HCT-116 p53 Agonism Beta-lactamase Assay, Phase 4 (AID 2283597);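 also: hits lower the luminescence signal meaning cytotoxicity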
Results filed as inconclusive are left out. Active and inactive are the calls of the source. How the source made its calls: active means hit-call score of the fitted dose curve at least 0.9, where 1 is the maximum; inconclusive means response in the unintended direction; inactive means score below 0.9.
Please reply with one of these outcomes: active, inactive

[
  {
    "compound": "CCCCCCCCCCCCBr",
    "cat": "inactive"
  },
  {
    "compound": "CCCCS(=O)(=O)Cl",
    "cat": "inactive"
  },
  {
    "compound": "CCOP(=O)(OCC)OC(=CCl)c1ccc(Cl)cc1Cl",
    "cat": "inactive"
  },
  {
    "compound": "CC(C)(C1CCC(O)CC1)C1CCC(O)CC1 (centres undefined)",
    "cat": "inactive"
  },
  {
    "compound": "Nc1cccnc1",
    "cat": "inactive"
  },
  {
    "compound": "O=C(CCl)NCO",
    "cat": "inactive"
  }
]

Inquiry: What was the test verdict on `CCOc1ccc(N)cc1` ?
Reply text: inactive

Inquiry: What was the test verdict on CCC(C)(C#N)N=NC(C)(C#N)CC (centres undefined) ?
Reply text: inactive

Inquiry: What was the test verdict on `Clc1cnc(Oc2ccc(Oc3ncc(Cl)cc3Cl)cc2)c(Cl)c1` ?
Reply text: inactive

Inquiry: What was the test verdict on `c1ccc(-c2cccc(-c3ccccc3)c2)cc1` ?
Reply text: inactive

Inquiry: What was the test verdict on `CCCCOC(=O)COC(=O)c1ccccc1C(=O)OCCCC` ?
Reply text: inactive

Inquiry: What was the test verdict on `BrCCCCBr` ?
Reply text: inactive

Inquiry: What was the test verdict on CCCSP(=S)(OCC)Oc1ccc(SC)cc1 (centres undefined) ?
Reply text: inactive

Inquiry: What was the test verdict on `COCCl` ?
Reply text: inactive

Inquiry: What was the test verdict on `O=C=Nc1ccc(Cl)cc1` ?
Reply text: inactive

Inquiry: What was the test verdict on `N#Cc1ccc(Cl)cc1` ?
Reply text: inactive
